measurement-protocol: Partition coefficient (logP)
Assay type: physicochemical
condition-set: octanol/water; read-out: logP
measured-endpoint: logP

> print(dat)
                                    compound  measured.endpoint  measured
 1  CC(/C=C/CC(C)CCCC(C)C)=C\C(=O)OC(C)C (centres undefined)               logP      7.15
 2  CCSC(=O)/C=C(C)/C=C/CC(C)CCCC(C)(C)O (centres undefined)               logP      5.89
 3  CCOC(=O)/C=C(C)/C=C/CC(C)CCCC(C)C (centres undefined) [HYDROPRENE]               logP      6.74
 4  CCC(C)OC(=O)/C=C(C)/C=C/CC(C)CCCC(C)C (centres undefined)               logP      7.69
 5  CCOC(=O)/C=C(C)/C=C/CC(C)CCC(OC)C(C)C (centres undefined)               logP      5.54
 6  CCOC(=O)/C=C(C)/C=C/CC(C)CCC=C(C)C (centres undefined)               logP      6.19
 7  COC(CCC(C)C/C=C/C(C)=C/C(=O)OC(C)C)C(C)C (centres undefined)               logP      5.95
 8  C#CCOC(=O)/C=C(C)/C=C/CC(C)CCCC(C)C (centres undefined)               logP      5.86
 9  CC(/C=C/CC(C)CCCC(C)C)=C\C(=O)OC(C)(C)C (centres undefined)               logP      7.56
10  CC(/C=C/CC(C)CCCC(C)C)=C\C(=O)OCc1ccccc1 (centres undefined)               logP      7.87
11  CCSC(=O)/C=C(C)/C=C/CC(C)CCCC(C)(C)OC (centres undefined)               logP      6.78
12  CCOC(=O)/C=C(C)/C=C/CC(C)CCC(SCC)C(C)C (centres undefined)               logP       6.9
13  COC(C)(C)CCCC(C)C/C=C/C(C)=C/C(=O)OC1CC1 (centres undefined)               logP      5.71
14  COC(C)(C)CCCC(C)C/C=C/C(C)=C/C(=O)OC(C)C (centres undefined)               logP      5.95
15  CCCC(=O)/C=C(C)/C=C/CC(C)CCCC(C)C (centres undefined)               logP      6.81
16  C#CCOC(=O)/C=C(C)/C=C/CC(C)CCCC(C)(C)OC (centres undefined)               logP      4.66
17  CCNC(=O)OC(C)(C)CCCC(C)C/C=C/C(C)=C/C(=O)OCC (centres undefined)               logP      5.65
18  C=CCSC(=O)/C=C(C)/C=C/CC(C)CCCC(C)(C)OC (centres undefined)               logP      6.77
19  COC(C)(C)CCCC(C)C/C=C/C(C)=C/C(=O)OC1CCC1 (centres undefined)               logP      6.44
